- Test system: A549
- assayProcedure: Cytotoxicity against human A549 cells after 72 hrs by CCK8 assay
- Format: functional, cell-based
- particulars: A549, 72 h

{"columns": ["entrySmiles", "IC50"],
 "data": [
  ["COc1cc(OC)c(-c2cn3cc(NCCN)c(OC)cc3n2)cc1Cl", "< 10 µM"]
]}

###

- assayedSystem: Histone-lysine N-methyltransferase, H3 lysine-79 specific (Homo sapiens, UniProt Q8TEK3)
- Sequence (Q8TEK3 whole entry): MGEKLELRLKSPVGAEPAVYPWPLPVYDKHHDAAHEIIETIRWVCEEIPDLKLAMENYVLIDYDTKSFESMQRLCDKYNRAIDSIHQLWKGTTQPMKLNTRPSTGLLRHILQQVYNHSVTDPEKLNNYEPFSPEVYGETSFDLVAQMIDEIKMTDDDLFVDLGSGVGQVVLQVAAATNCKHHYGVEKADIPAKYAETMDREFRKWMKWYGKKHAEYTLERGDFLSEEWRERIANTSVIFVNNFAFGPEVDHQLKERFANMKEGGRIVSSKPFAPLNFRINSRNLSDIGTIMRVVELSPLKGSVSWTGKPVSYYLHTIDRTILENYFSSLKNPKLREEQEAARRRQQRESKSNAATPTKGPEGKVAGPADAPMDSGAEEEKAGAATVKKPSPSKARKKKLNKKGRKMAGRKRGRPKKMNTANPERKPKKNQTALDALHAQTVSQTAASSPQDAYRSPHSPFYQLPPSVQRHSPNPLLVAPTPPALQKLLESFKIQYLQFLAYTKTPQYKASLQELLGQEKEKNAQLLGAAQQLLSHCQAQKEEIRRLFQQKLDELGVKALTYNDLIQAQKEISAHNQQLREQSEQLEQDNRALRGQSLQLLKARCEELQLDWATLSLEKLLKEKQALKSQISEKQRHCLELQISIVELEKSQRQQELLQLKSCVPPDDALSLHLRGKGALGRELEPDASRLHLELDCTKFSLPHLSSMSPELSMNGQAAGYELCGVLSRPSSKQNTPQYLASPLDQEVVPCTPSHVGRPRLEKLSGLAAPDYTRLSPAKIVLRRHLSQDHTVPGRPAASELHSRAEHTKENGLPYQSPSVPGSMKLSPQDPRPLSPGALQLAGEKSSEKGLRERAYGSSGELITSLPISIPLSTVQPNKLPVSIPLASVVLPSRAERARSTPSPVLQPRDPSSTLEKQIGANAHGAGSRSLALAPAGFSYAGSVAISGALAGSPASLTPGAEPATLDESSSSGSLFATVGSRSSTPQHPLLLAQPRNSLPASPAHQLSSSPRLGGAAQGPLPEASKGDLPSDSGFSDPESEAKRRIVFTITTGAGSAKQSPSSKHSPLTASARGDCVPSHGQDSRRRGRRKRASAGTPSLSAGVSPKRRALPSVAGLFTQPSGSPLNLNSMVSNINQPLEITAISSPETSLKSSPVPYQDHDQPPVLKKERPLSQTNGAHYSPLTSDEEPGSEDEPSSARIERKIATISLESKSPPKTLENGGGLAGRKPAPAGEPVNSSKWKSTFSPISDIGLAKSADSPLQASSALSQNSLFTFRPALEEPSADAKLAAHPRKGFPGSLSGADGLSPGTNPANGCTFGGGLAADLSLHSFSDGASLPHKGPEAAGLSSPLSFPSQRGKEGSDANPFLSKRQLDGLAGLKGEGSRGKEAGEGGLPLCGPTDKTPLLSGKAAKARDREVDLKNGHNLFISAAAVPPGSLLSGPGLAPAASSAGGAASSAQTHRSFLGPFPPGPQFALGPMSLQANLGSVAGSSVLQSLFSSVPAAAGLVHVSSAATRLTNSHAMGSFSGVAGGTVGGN
- assayProcedure: Inhibition of DOT1L in human THP1 cells assessed as reduction in H3K79 methylation measured after 7 days

{"columns": ["molecule", "assayedSystem", "IC50"],
 "data": [
  ["CC(CNC(=O)Nc1ccc(C(C)(C)C)cc1)CN(C)C[C@H]1O[C@@H](n2cnc3c(N)ncnc32)[C@H](O)[C@@H]1O (stereo partly specified)", "Histone-lysine N-methyltransferase, H3 lysine-79 specific (Homo sapiens, UniProt Q8TEK3)", "< 100 nM"]
]}

Source: ChEMBL document CHEMBL4400532
